Values compiled from patent US20250179047A1.

- measured.on: BCL2 D103Y (Homo sapiens, UniProt P10415, D103Y)
- protocol: TR-FRET competitive binding assay, BCL2 D103Y
- condition.context: Ki determined from IC50, read-out: TR_FRET EKI_Bcl2 D103Y
Reported pKi is given for each of the following compounds.
pKi is a log-scale quantity: -log10 of the concentration expressed in molar.

The compound identified as Cc1c(N(C(=O)c2cc(-c3cc4c(cc3C(=O)N3Cc5ccccc5C[C@H]3CN3CCCCC3)CN(C(=O)Cc3ccc(OCCC5CCOCC5)nc3)CC4)n(C)c2C)c2ccc(O)cc2)cc(C#N)n1C registered its pKi at 9.85

The compound identified as Cc1c(C(=O)N(c2ccc(O)cc2)c2cnn(CC(C)C)c2)cc(-c2cc3c(cc2C(=O)N2Cc4ccccc4C[C@H]2C)CN(C(=O)Cc2ccc(OCCN4CCOCC4)cc2)CC3)n1C registered its pKi at 9.74

---

Reported TR_FRET EKI BCLxL/WT selectivty ratio is given for each of the following compounds.
- measured.on: UniProt Q07817
- Sequence (Q07817 other isoform, or with tags, fused parts or gaps): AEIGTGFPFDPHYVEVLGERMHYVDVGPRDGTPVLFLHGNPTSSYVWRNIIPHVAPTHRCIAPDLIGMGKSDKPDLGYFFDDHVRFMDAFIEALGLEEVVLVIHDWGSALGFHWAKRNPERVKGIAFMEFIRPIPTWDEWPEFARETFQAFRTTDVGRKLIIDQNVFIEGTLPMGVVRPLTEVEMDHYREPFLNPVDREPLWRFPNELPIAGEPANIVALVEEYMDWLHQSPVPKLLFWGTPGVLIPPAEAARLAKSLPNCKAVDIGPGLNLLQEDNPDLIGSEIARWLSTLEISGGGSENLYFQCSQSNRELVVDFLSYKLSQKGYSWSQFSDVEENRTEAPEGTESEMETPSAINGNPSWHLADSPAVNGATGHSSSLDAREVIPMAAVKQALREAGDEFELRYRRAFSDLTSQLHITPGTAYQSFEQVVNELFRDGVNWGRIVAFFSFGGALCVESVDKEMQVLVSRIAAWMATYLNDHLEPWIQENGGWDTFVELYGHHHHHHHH
- protocol: TR-FRET competitive binding assay, BCLXL WT
- condition.context: ratio Ki BCLxL / Ki BCL2 WT

The cases that follow already have their TR_FRET EKI BCLxL/WT selectivty ratio on record.
COC[C@@H]1Cc2ccccc2CN1C(=O)c1cc2c(cc1-c1cc(C(=O)N(c3ccc(O)cc3)c3cc(C#N)n(C(F)F)c3C)c(C)n1C)CCN(C(=O)Cc1ccc(OCCN3CCOCC3)cc1)C2 [Example 172]
29.1
Cc1c(N(C(=O)c2cc(-c3cc4c(cc3C(=O)N3Cc5ccccc5C[C@H]3CN3CCCCC3)CN(C(=O)Cc3ccc(OCCN5CCOCC5(C)C)cc3)CC4)n(C)c2C)c2ccc(O)cc2)cc(C#N)n1C [Example 148]
25.0
Cc1c(C(=O)N(c2ccccc2)c2cnn(C)c2)cc(-c2cc3c(cc2C(=O)N2Cc4ccccc4C[C@H]2C)CN(C(=O)Cc2cccc(C4CCN(C)CC4)c2)CC3)n1C [Example 216]
50.1

The compound identified as Cc1nn(C)cc1N(C(=O)c1cc(-c2cc3c(cc2C(=O)N2Cc4ccccc4C[C@H]2C)CN(C(=O)Cc2ccc(OCCN(C)C)cc2)CC3)n(C)c1C)c1ccccc1 [Example 221] registered its TR_FRET EKI BCLxL/WT selectivty ratio at 118.0

The compound identified as Cc1c(C(=O)N(c2ccc(O)cc2)c2cc(C#N)n(CCN(C)C3CC3)c2C)cc(-c2cc3c(cc2C(=O)N2Cc4ccccc4C[C@H]2C)CN(C(=O)Cc2ccccc2)CC3)n1C [Example 22] registered its TR_FRET EKI BCLxL/WT selectivty ratio at 11.5

---

- measured.on: BCL2 D103Y (Homo sapiens, UniProt P10415, D103Y)
- protocol: TR-FRET competitive binding assay, BCL2 D103Y
- condition.context: Ki determined from IC50, read-out: TR_FRET EKI_Bcl2 D103Y
Reported pKi is given for each of the following compounds.
pKi is a log-scale quantity: -log10 of the concentration expressed in molar.

Cc1c(N(C(=O)c2cc(-c3cc4c(cc3C(=O)N3Cc5ccccc5C[C@H]3C)CN(C(=O)Cc3ccc(OCCN5CCN(CC(F)F)CC5)cc3)CC4)n(C)c2C)c2ccc(O)cc2)cc(C#N)n1C
9.62
Cc1c(N(C(=O)c2cc(-c3cc4c(cc3C(=O)N3Cc5ccccc5C[C@H]3C)CN(C(=O)Cc3ccc(OCCN5CCO[C@H](C)C5)cc3)CC4)n(C)c2C)c2ccc(O)cc2)cc(C#N)n1C
9.72
Cc1c(N(C(=O)c2cc(-c3cc4c(cc3C(=O)N3Cc5ccccc5C[C@H]3CN3CCCCC3)CN(C(=O)Cc3ccc(OCCN5CCN(C)CC5)cc3)CC4)n(C)c2C)c2ccc(O)cc2)cc(C#N)n1C
9.85

The compound identified as Cc1c(C(=O)N(c2ccccc2)c2cnn(C(F)F)c2)cc(-c2cc3c(cc2C(=O)N2Cc4ccccc4C[C@H]2C)CN(C(=O)Cc2ccc(OCCC4CCN(C)CC4)cc2)CC3)n1C registered its pKi at 9.89

The compound identified as Cc1c(N(C(=O)c2cc(-c3cc4c(cc3C(=O)N3Cc5ccccc5C[C@H]3C)CN(C(=O)Cc3ccc(OCCN5CCOCC5)cc3)CC4)n(C)c2C)c2ccc(O)cc2)cnn1C1CCOCC1 registered its pKi at 9.51

The compound identified as Cc1c(N(C(=O)c2cc(-c3cc4c(cc3C(=O)N3Cc5ccccc5C[C@H]3C)CN(C(=O)Cc3ccc(C5CCN(CCF)CC5)c(F)c3)CC4)n(C)c2C)c2ccc(O)cc2)cc(C#N)n1C registered its pKi at 9.47

The compound identified as COc1ccc(N(C(=O)c2cc(-c3cc4c(cc3C(=O)N3Cc5ccccc5C[C@H]3C)CN(C(=O)Cc3ccc(OCCN5CCOCC5)cc3)CC4)n(C)c2C)c2ccc(O)cc2)cc1C#N registered its pKi at 9.34

The compound identified as Cc1c(C(=O)N(c2ccc(O)cc2)c2cnn(C(F)F)c2)cc(-c2cc3c(cc2C(=O)N2Cc4ccccc4C[C@H]2C)CN(C(=O)Cc2ccc(OCCN4CCOCC4)cc2)CC3)n1C registered its pKi at 9.68

The compound identified as Cc1c(N(C(=O)c2cc(-c3cc4c(cc3C(=O)N3Cc5ccccc5C[C@H]3C)CN(C(=O)Cc3ccccc3C#N)CC4)n(C)c2C)c2ccc(O)cc2)cc(C#N)n1C registered its pKi at 9.40

The compound identified as COc1ncc(N(C(=O)c2cc(-c3cc4c(cc3C(=O)N3Cc5ccccc5C[C@H]3C)CN(C(=O)Cc3ccc(OCCN(C)C)cc3F)CC4)n(C)c2C)c2ccccc2)cc1F registered its pKi at 9.89

The compound identified as Cc1c(C(=O)N(c2ccccc2)c2cnn(C)c2)cc(-c2cc3c(cc2C(=O)N2Cc4ccccc4C[C@H]2CN2CCCCC2)CN(C(=O)Cc2ccc(OCCC4CCOCC4)cc2)CC3)n1C registered its pKi at 9.82

The compound identified as Cc1c(N(C(=O)c2cc(-c3cc4c(cc3C(=O)N3Cc5ccccc5C[C@H]3C)CN(C(=O)Cc3ccc(OCCN(C)C)cc3F)CC4)n(C)c2C)c2ccccc2)cc(C#N)n1C registered its pKi at 10.52

The compound identified as Cc1c(N(C(=O)c2cc(-c3cc4c(cc3C(=O)N3Cc5ccccc5C[C@H]3C)CN(C(=O)Cc3ccc(N5CCC(N6CCOCC6)C5)cc3)CC4)n(C)c2C)c2ccc(O)cc2)cc(C#N)n1C (single isomer, unassigned) registered its pKi at 9.34
